assayed.target: 7-dehydrocholesterol reductase (Homo sapiens, UniProt Q9UBM7)
Sequence (Q9UBM7 whole entry): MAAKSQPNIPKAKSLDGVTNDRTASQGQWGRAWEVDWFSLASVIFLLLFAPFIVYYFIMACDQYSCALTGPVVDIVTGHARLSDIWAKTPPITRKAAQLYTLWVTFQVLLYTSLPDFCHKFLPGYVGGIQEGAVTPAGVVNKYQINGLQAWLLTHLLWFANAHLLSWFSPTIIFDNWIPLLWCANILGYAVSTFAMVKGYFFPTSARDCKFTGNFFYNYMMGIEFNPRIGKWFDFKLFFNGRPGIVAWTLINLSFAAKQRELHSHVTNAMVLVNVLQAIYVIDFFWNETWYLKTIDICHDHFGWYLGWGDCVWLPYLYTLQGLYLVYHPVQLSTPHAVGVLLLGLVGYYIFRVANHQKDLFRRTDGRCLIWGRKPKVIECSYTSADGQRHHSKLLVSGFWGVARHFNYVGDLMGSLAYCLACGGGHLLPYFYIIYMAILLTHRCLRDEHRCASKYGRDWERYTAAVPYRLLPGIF
assay.info: Inhibition of […]-mediated cholesterol biosynthesis in human HL60 cells assessed as inhibition of 2-[13C]acetate after 24 hrs GC/MS analysis
pIC50: −log10 of the molar value.
property.name: pIC50

[P] COc1cc2c(cc1O)CCN(CCc1ccc(OC)c(OC)c1)C2
[Q] O=C(O)c1ccc(CCN2CCN(C/C=C/c3ccc(Cl)cc3)CC2)cc1
[R] COc1cc2c(cc1O)CCN(CCc1ccc(Cl)cc1)C2
[S] COc1cccc(CCN2CCc3cc(O)c(OC)cc3C2)c1
Sort ascending by pIC50: all records listed above. Provide your answer as the labels ordered per the instruction.
P, Q, S, R
